zone of inhibition at 100 µg/disc: recorded values
- System: Saccharomyces cerevisiae
- assaySummary: Antimicrobial activity against Saccharomyces cerevisiae at 100 ug after 24 hr by cup diffusion technique
- Assay type: functional
- studyConditions: read-out: DIZ
# value in mm; strip the unit string

Example entries and their recorded answers appear below.
>  <structureNotation>
N=C(N)c1ccc(-c2ccc(-c3ccco3)o2)cc1

>  <endpointResult>
11

$$$$
>  <structureNotation>
CC1(C)S[C@@H]2[C@H](NC(=O)[C@H](N)c3ccccc3)C(=O)N2[C@H]1C(=O)O

>  <endpointResult>
17

$$$$

We now examine a further compound.
Qu. Entry "N#Cc1ccc(-c2ccc(-c3cccs3)o2)cc1" , system Saccharomyces cerevisiae: what zone of inhibition at 100 µg/disc was measured?
Ans. 15

* * *

- System: Saccharomyces cerevisiae
- assaySummary: Antimicrobial activity against Saccharomyces cerevisiae at 100 ug after 24 hr by cup diffusion technique
- Type: functional
- studyConditions: read-out: DIZ
Entries and their measured zone of inhibition at 100 µg/disc follow.
Provide only the numeric value, understood in mm.

>  <structureNotation>
N=C(N)c1ccc(-c2ccc(-c3ccco3)o2)nc1

>  <target>
Saccharomyces cerevisiae

>  <scaleUnit>
mm

>  <endpointResult>
12

$$$$
>  <structureNotation>
N=C(N)c1ccc(-c2ccc(-c3cccs3)s2)nc1

>  <target>
Saccharomyces cerevisiae

>  <scaleUnit>
mm

>  <endpointResult>
14

$$$$
>  <structureNotation>
N#Cc1ccc(-c2ccc(-c3cccs3)s2)nc1

>  <target>
Saccharomyces cerevisiae

>  <scaleUnit>
mm

>  <endpointResult>
19

$$$$

Qu. zone of inhibition at 100 µg/disc lookup needed for "N#Cc1ccc(-c2ccc(-c3cccs3)o2)nc1" , thanks.
Ans. 16

Qu. I am curious: what zone of inhibition at 100 µg/disc value has been reported for "N#Cc1ccc(-c2ccc(-c3ccco3)o2)cc1" ?
Ans. 16

Qu. What value of measured zone of inhibition at 100 µg/disc is listed for "N#Cc1ccc(-c2ccc(-c3cccs3)s2)cc1" ?
Ans. 13

Qu. Consider the compound shown here: "N#Cc1ccc(-c2ccc(-c3ccco3)o2)nc1" What is its recorded zone of inhibition at 100 µg/disc?
Ans. 20

* * *

zone of inhibition at 100 µg/disc values, listed per item
- Tested on: Saccharomyces cerevisiae
- assaySummary: Antimicrobial activity against Saccharomyces cerevisiae at 100 ug after 24 hr by cup diffusion technique
- Assay type: functional
- studyConditions: read-out: DIZ
Respond numerically; units are mm and should not be typed.

Qu. What value of measured zone of inhibition at 100 µg/disc is listed for N=C(N)c1ccc(-c2ccc(-c3cccs3)s2)cc1 [4-(2,2'-BITHIOPHENE-5-YL)BENZAMIDINE] ?
Ans. 12

Qu. Request the reported zone of inhibition at 100 µg/disc associated with "N=C(N)c1ccc(-c2ccc(-c3cccs3)o2)nc1"
Ans. 10

Qu. Looking for the measured zone of inhibition at 100 µg/disc of "N=C(N)c1ccc(-c2ccc(-c3cccs3)o2)cc1" , can you help?
Ans. 12
